The measurements presented in this section are drawn from paper PMC11602988.

The following compounds are shown together with reported Mean_transport_ratio_Phe244Ala values.
Molecular target: OCT1 Phe244Ala variant (Homo sapiens, UniProt O15245, F244A)
Experiment: Uptake screening (transport ratio over empty vector), HEK293 cells overexpressing OCT1 Phe244Ala variant;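 note: stably transfected HEK293 cells, intracellular substrate quantified by HPLC-tandem mass spectrometry in cell lysates, uptake in HBSS+ buffer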
Type: cell-based
Parameters: expressed in transfected cells
Details: uptake ratio of OCT1 Phe244Ala-overexpressing HEK293 cells over empty vector
Just the number, please.

Example results:
compound	Mean_transport_ratio_Phe244Ala
CNC(=C[N+](=O)[O-])NCCSCc1csc(CN(C)C)n1 [Nizatidine]	1.413
NCc1ccc(O)cc1 [Hydroxybenzylamin]	1.294
NC(N)=NCc1cccc(I)c1 [Metaiodobenzylguanidine]	11.193
CN(C)CCc1ccc(O)cc1 [Hordenine]	1.16
CC(C)(C)NCC(O)COc1cccc2c1CC(O)C(O)C2 (centres unmarked) [Nadolol]	13.705
CN(C)C(=O)Oc1cccc([N+](C)(C)C)c1 [Neostigmine]	12.952

Ask: Fill in Mean_transport_ratio_Phe244Ala for Oc1ccc(CC2NCCc3cc(O)c(O)cc32)cc1 (centres unmarked) [Higenamine] tested with OCT1 Phe244Ala variant (Homo sapiens, UniProt O15245, F244A).
Reply: 13.029

Ask: Fill in Mean_transport_ratio_Phe244Ala for N=C(N)NC(=O)Cc1c(Cl)cccc1Cl [Guanfacine] tested with OCT1 Phe244Ala variant (Homo sapiens, UniProt O15245, F244A).
Reply: 2.966
